Measured bioavailability accompanies every entry in the list below.
Assay: Bioavailability in mouse at 1 mg/kg, iv and 2 mg/kg, po
Type: ADME, organism-based
Conditions: in vivo
Answers without a unit are incomplete; give the number and then its unit.

Answered examples (3):
>>> data_value("CC(C)(C)[C@H]1CC[C@H](N(C(=O)Nc2ccc(OC(F)(F)F)cc2)C2CCOc3cc(C(=O)NCCC(=O)O)ccc32)CC1 (some centres undefined)")
"15%"
>>> data_value("CC(C)(C)[C@H]1CC[C@H](N(C(=O)Nc2ccc(OC(F)(F)F)cc2)C2CCCc3cc(C(=O)Nc4nn[nH]n4)ccc32)CC1 (some centres undefined)")
"1.4%"
>>> data_value("CC(C)(C)[C@H]1CC[C@H](N(C(=O)Nc2ccc(OC(F)(F)F)cc2)C2CCCc3cc(C(=O)NCCC(=O)O)ccc32)CC1 (some centres undefined)")
"10%"

Attention now turns to another entry.
bioavailability for CC(C)(C)[C@H]1CC[C@H](N(C(=O)Nc2ccc(OC(F)(F)F)cc2)C2CCc3cc(C(=O)NCCC(=O)O)ccc32)CC1 (some centres undefined) is 17%

----------
Target: UniProt P47871
Sequence (P47871 whole entry): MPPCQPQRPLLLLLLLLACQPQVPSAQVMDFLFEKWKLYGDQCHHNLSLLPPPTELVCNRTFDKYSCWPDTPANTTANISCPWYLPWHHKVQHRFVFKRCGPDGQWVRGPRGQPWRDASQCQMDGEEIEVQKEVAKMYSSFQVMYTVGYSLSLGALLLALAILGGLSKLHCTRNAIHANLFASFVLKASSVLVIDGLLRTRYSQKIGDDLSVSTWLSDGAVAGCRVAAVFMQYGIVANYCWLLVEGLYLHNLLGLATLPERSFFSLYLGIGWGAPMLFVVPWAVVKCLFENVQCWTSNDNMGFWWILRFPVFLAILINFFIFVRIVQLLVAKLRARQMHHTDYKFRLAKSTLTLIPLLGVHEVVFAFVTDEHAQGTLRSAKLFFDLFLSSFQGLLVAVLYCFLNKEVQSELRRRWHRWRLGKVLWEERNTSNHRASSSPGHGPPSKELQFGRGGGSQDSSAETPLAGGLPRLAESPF
Assay: Displacement of [125]glucagon from human glucagon receptor expressed in CHO cells
Type: cell-based
test readout: IC50 (µM)
Could you give me the number in µM? Just the number is fine.

>>> data_value("CC(C)(C)[C@H]1CC[C@H](N(C(=O)Cc2ccc(OC(F)(F)F)cc2)C2CCc3cc(C(=O)NCCC(=O)O)ccc32)CC1 (some centres not stated)")
0.018
>>> data_value("CC(C)(C)[C@H]1CC[C@@H](N(C(=O)Nc2ccc(OC(F)(F)F)cc2)C2CCc3cc(C(=O)NCCC(=O)O)ccc32)CC1 (some centres not stated)")
3.38
>>> data_value("CC(C)(C)[C@H]1CC[C@H](N(C(=O)c2ccc(OC(F)(F)F)cc2)C2CCc3cc(C(=O)Nc4nnn[nH]4)ccc32)CC1 (some centres not stated)")
0.049
>>> data_value("CC(C)(C)[C@H]1CC[C@@H](N(C(=O)Nc2ccc(OC(F)(F)F)cc2)C2CCc3cc(C(=O)NCCC(=O)O)ccc32)CC1 (single isomer, unassigned)")
0.0038

CC(C)(C)[C@H]1CC[C@H](N(C(=O)Nc2cc(C(F)(F)F)cc(C(F)(F)F)c2)C2CCc3cc(C(=O)NCCC(=O)O)ccc32)CC1 (some centres not stated) yielded IC50 of 0.028

response.value for O=C(Nc1nnn[nH]1)c1ccc2c(c1)CCC2N(C(=O)Nc1ccc(OC(F)(F)F)cc1)c1ccc(OC(F)(F)F)cc1 (configuration not stated) (field: IC50) = 0.062

// field: IC50; key: CC(C)(C)[C@H]1CC[C@H](N(C(=O)c2ccc(OC(F)(F)F)cc2)C2CCc3cc(C(=O)NCCC(=O)O)ccc32)CC1 (some centres not stated) ; value = 0.13

----------
Test: Cmax in mouse at 1 mg/kg, iv and 2 mg/kg, po
Assay type: ADME, organism-based
Conditions: in vivo
test readout: Cmax (nM)
# output: bare number, implied unit nM

Cmax reading for CC(C)(C)[C@H]1CC[C@H](N(C(=O)Nc2ccc(OC(F)(F)F)cc2)C2CCCc3cc(C(=O)NCCC(=O)O)ccc32)CC1 (some centres undefined) : 90

----------
Experiment: Volume of distribution at steady state in mouse at 1 mg/kg, iv and 2 mg/kg, po
Type: ADME, organism-based
Settings: in vivo, read-out: Vdss
test readout: Vd (L/kg)
Write the value in L/kg as a bare number.

Illustrative cases are given below, each with its answer.
>>> data_value("CC(C)(C)[C@H]1CC[C@H](N(C(=O)Nc2ccc(OC(F)(F)F)cc2)C2CCc3cc(C(=O)NCCC(=O)O)ccc32)CC1 (some centres undefined)")
1.6
>>> data_value("CC(C)(C)[C@H]1CC[C@H](N(C(=O)Nc2ccc(OC(F)(F)F)cc2)C2CCCc3cc(C(=O)NCCC(=O)O)ccc32)CC1 (some centres undefined)")
0.9
>>> data_value("CC(C)(C)[C@H]1CC[C@H](N(C(=O)Nc2ccc(OC(F)(F)F)cc2)C2CCOc3cc(C(=O)NCCC(=O)O)ccc32)CC1 (some centres undefined)")
1.4

Moving on to another compound below.
Recorded Vd (compound CC(C)(C)[C@H]1CC[C@H](N(C(=O)Nc2ccc(OC(F)(F)F)cc2)C2CCCc3cc(C(=O)Nc4nn[nH]n4)ccc32)CC1 (some centres undefined) ): 1.4
